Test system: Lipid bilayer
assay info: Binding affinity to DPPG membrane assessed as main transition temperature at 1:10 compound/DPPG molar ratio by differential scanning calorimetric method (reference value: 40.3 degreeC)
I'd be grateful if you could share measured Tm for these entries.
Please state the figure in °C; there is no need to write the unit.

Give the reported Tm for COc1cc(NC(C)CCCN)c2ncccc2c1.O=C(O)/C=C/c1ccc(Cl)cc1 (centres undefined) (system: Lipid bilayer). 38.1

How about this compound: COc1cc(NC(C)CCCNC(=O)/C=C/c2ccc(Cl)cc2)c2ncccc2c1 (centres undefined) 39

How about this compound: COc1cc(NC(C)CCCNC(=O)/C=C/c2ccc(C(C)C)cc2)c2ncccc2c1 (centres undefined) 39

How about this compound: CC(C)c1ccc(/C=C/C(=O)O)cc1.COc1cc(NC(C)CCCN)c2ncccc2c1 (centres undefined) 38.3

====

I'd be grateful if you could share measured deltaH for these entries.
System: Lipid bilayer
assay info: Binding affinity to DPPC membrane assessed as change in enthalpy for main transition temperature at 1:10 compound/DPPC molar ratio by differential scanning calorimetric method (reference value: 7.22 kJ/mol)
Please state the figure in kcal/mol; there is no need to write the unit.

Reported deltaH, compound COc1cc(NC(C)CCCNC(=O)/C=C/c2ccc(C(C)C)cc2)c2ncccc2c1 (centres undefined) : ____ 1.89

How about this compound: COc1cc(NC(C)CCCNC(=O)/C=C/c2ccc(Cl)cc2)c2ncccc2c1 (centres undefined) 2.05

How about this compound: CC(C)c1ccc(/C=C/C(=O)O)cc1.COc1cc(NC(C)CCCN)c2ncccc2c1 (centres undefined) 2.22

How about this compound: COc1cc(NC(C)CCCN)c2ncccc2c1.O=C(O)/C=C/c1ccc(Cl)cc1 (centres undefined) 2.29

====

I'd be grateful if you could share measured deltaH for these entries.
Test system: Lipid bilayer
assay info: Binding affinity to DPPG membrane assessed as change in enthalpy for main transition temperature at 1:10 compound/DPPG molar ratio by differential scanning calorimetric method (reference value: 8.7 KJ/mol)
Please state the figure in kcal/mol; there is no need to write the unit.

Reported deltaH, compound COc1cc(NC(C)CCCN)c2ncccc2c1.O=C(O)/C=C/c1ccc(Cl)cc1 (centres undefined) : ____ 2.23

How about this compound: CC(C)c1ccc(/C=C/C(=O)O)cc1.COc1cc(NC(C)CCCN)c2ncccc2c1 (centres undefined) 2.35

How about this compound: COc1cc(NC(C)CCCNC(=O)/C=C/c2ccc(Cl)cc2)c2ncccc2c1 (centres undefined) 2.46

How about this compound: COc1cc(NC(C)CCCNC(=O)/C=C/c2ccc(C(C)C)cc2)c2ncccc2c1 (centres undefined) 2.22
